Value source: paper PMC12040169

Entries and their viability at 28.5 h, 10 µM values follow.
assay: in vitro; conditions: human, hela cells, % viability
Record the value in %, omitting the unit from your answer.

The following compounds have reported results that may help.
| chemical_smiles | measured_metric | meas_value |
| --- | --- | --- |
| Cc1ccc(C(C)C)c(OCCSc2nc3c(N)ncnc3[nH]2)c1 | viability at 28.5 h, 10 µM | 94.3 |
| CC(C)CSc1nccnc1N1CCCC1 | viability at 28.5 h, 10 µM | 97.7 |
| Cc1nn(C(C)C)c(C)c1CN(Cc1ccccn1)Cc1ccco1 | viability at 28.5 h, 10 µM | 114 |
| O=C(O)CNC(=O)c1ccc(S(=O)(=O)N2CCCC2)cc1 | viability at 28.5 h, 10 µM | 87 |

Now consider a different compound.
Memo: CC(C)C(=O)N1CCC[C@@H]2NC(=O)c3ccccc3OCC/C=C/C[C@@H]21 , reported viability at 28.5 h, 10 µM: 101

###

experiment: in vitro; conditions: human, hela cells, % viability
Listing of entries alongside the reported viability at 28.5 h, 10 µM.
Write the answer as a number in %, unit excluded.

Previously resolved entries follow.
| molecule | measured_metric | meas_value |
| --- | --- | --- |
| CC(=O)c1cc(-c2cccnc2)cs1 | viability at 28.5 h, 10 µM | 82.4 |
| O=C(CC1NCCNC1=O)Nc1cccc(Cl)c1 (stereo not shown) | viability at 28.5 h, 10 µM | 105 |
| COc1ccc(C(C)C)cc1-c1cc(NCCc2cccnc2)n2nccc2n1 | viability at 28.5 h, 10 µM | 104 |
| CC(=O)N1CCC(c2nc(C3CCCC3)no2)C1 (stereo not shown) | viability at 28.5 h, 10 µM | 104 |
| CC1CCCCN1C(=O)CN1C(=O)N2CCCN=C2c2ccccc21 (stereo not shown) | viability at 28.5 h, 10 µM | 79.8 |
| Cc1cccc(C(C)(C)C)c1OCCNCCN [CBK265058G] | viability at 28.5 h, 10 µM | 118 |
| CC1CCN(S(=O)(=O)c2ccc(NC(=O)CCN3C(=O)c4ccccc4C3=O)cc2)CC1 | viability at 28.5 h, 10 µM | 98.8 |
| O=C(NCC(O)c1ccccc1)c1ccc(Cl)c(S(=O)(=O)N2CCCCC2)c1 (stereo not shown) | viability at 28.5 h, 10 µM | 81 |

Lab note: O=C(c1ccccc1NS(=O)(=O)c1cccc2cccnc12)N1CCOCC1 gave viability at 28.5 h, 10 µM of 87.1

The molecule CC1c2ccsc2CCN1C(=O)COc1ccc(Br)cc1 (stereo not shown) showed viability at 28.5 h, 10 µM equal to 98

# viability at 28.5 h, 10 µM (molecule: Cc1nnc(SCCN2CCOC2=O)n1CCc1cccs1 ) is 93.7

# molecule CSc1nnc(C2CCCN2C(=O)[C@@H]2C[C@@H]3C=C[C@H]2C3)n1C (stereo partly shown) ; its viability at 28.5 h, 10 µM = 79.8

Lab note: measured viability at 28.5 h, 10 µM of c1coc(-c2nccnc2NCCCN2CCOCC2)c1 was 96.8

For record COc1ccc(C(=O)NC(=S)Nc2ccc(O)c(-c3nc4cc(C)c(C)cc4o3)c2)cc1[N+](=O)[O-] the listed viability at 28.5 h, 10 µM is 111

Per the record, O=C(C[C@@H]1CCNC[C@@H]1Cc1cc(-c2ccccc2)on1)NC1CC1 has viability at 28.5 h, 10 µM of 88
